Biological target: SAE (Homo sapiens (Human), UniProt Q9UBT2)
Sequence (Q9UBT2 whole entry): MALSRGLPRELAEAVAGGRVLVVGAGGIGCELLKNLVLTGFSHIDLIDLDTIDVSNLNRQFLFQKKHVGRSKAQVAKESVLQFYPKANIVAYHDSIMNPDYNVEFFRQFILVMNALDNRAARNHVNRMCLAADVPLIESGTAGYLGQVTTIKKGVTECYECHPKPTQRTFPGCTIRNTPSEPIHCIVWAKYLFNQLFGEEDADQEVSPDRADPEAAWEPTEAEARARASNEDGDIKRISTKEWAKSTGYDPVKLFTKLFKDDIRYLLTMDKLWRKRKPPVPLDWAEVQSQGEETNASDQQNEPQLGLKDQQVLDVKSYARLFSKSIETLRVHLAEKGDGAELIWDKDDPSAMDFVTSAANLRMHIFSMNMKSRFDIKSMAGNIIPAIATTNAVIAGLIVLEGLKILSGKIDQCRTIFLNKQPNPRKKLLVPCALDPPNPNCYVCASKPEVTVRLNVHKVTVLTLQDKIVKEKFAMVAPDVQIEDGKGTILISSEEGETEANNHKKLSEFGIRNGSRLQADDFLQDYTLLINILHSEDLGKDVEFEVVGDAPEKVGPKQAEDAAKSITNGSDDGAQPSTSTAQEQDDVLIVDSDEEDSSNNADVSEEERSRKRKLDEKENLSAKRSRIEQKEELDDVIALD
Sequence (Q9UBE0 whole entry partner): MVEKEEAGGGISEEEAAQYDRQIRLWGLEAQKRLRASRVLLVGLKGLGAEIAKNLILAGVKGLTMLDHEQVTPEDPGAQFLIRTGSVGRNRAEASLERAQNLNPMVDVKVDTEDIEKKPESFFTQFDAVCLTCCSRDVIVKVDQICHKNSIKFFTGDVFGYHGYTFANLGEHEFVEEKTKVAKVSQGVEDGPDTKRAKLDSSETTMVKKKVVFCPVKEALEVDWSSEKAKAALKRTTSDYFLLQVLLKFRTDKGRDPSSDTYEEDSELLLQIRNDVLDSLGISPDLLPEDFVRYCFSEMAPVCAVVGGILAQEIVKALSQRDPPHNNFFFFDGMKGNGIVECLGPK
Test: In vitro inhibitory activity assay against SAE (SUMO-2/3 immunofluorescence in HCT116 cells)
Type: cell-based
Details: 6 h incubation, class symbols, read-out: SUMO IF IC50
In this section, each of the compounds is paired with its reported IC50.
ENDPOINT_LABEL: IC50

NS(=O)(=O)OC[C@H]1C[C@@H](Nc2ncncc2C(=O)c2cc3c(s2)CCC[C@]32NCCc3cc(Cl)c(Cl)cc32)C[C@@H]1O :: ≤ 50 nM
NS(=O)(=O)OC[C@H]1C[C@@H](Nc2ncncc2C(=O)c2cc3c(s2)CSC[C@@]32NCCc3ncc(Cl)cc32)C[C@@H]1O :: > 200 nM
NS(=O)(=O)CC[C@H]1C[C@@H](Nc2ncncc2C(=O)c2cc3c(s2)CSC[C@]32NCCc3ncc(Cl)cc32)C[C@@H]1O :: ≤ 50 nM
NS(=O)(=O)OC[C@H]1C[C@@H](Nc2ncncc2C(=O)c2cc3c(s2)CSC[C@@]32NCCc3ccc(F)cc32)C[C@@H]1O :: > 200 nM
NS(=O)(=O)OC[C@H]1C[C@@H](Nc2ncncc2C(=O)c2cc3c(s2)COC[C@]32NCCc3cc(Cl)c(Cl)cc32)C[C@@H]1O :: 50 to 200 nM
COc1ccc2c(c1)C1(CCCc3sc(C(=O)c4cncnc4N[C@@H]4C[C@H](COS(N)(=O)=O)[C@@H](O)C4)cc31)NCC2 (stereo partly drawn) :: > 200 nM
NS(=O)(=O)OC[C@H]1C[C@@H](Nc2ncncc2C(=O)c2cc3c(s2)CC[C@]32NCCc3cc(F)c(F)cc32)C[C@@H]1O :: ≤ 50 nM
N#Cc1ccc2c(c1)[C@]1(CCCc3sc(C(=O)c4cncnc4N[C@@H]4C[C@H](COS(N)(=O)=O)[C@@H](O)C4)cc31)NCC2 :: > 200 nM
NS(=O)(=O)OC[C@H]1C[C@@H](Nc2ncncc2C(=O)c2cc3c(s2)CN(C2CC2)C[C@]32OCCc3ccc(Cl)cc32)C[C@@H]1O :: ≤ 50 nM
NS(=O)(=O)OC[C@H]1C[C@@H](Nc2ncncc2C(=O)c2cc3c(s2)CCCC32NCCc3ncc(Cl)cc32)C[C@@H]1O (stereo partly drawn) :: 50 to 200 nM
CCN1Cc2sc(C(=O)c3cncnc3N[C@@H]3C[C@H](COS(N)(=O)=O)[C@@H](O)C3)cc2C2(C1)OCCc1ccc(F)cc12 (stereo partly drawn) :: 50 to 200 nM
Cc1ccc2c(c1)C1(CCc3sc(C(=O)c4cncnc4N[C@@H]4C[C@H](COS(N)(=O)=O)[C@@H](O)C4)cc31)NCC2 (stereo partly drawn) :: 50 to 200 nM
